# targetDesc: Cyclin-dependent kinase 7/ cyclin H (Homo sapiens) (UniProt P51946+P50613)
# measurementSetup: at 10 µM
readout: residual activity (%)

INSERT INTO assay_data (structurenotation, readout, result) VALUES
  ('COc1ccc(S(=O)(=O)N(CCO)c2ccccc2CN(C)C/C=C/c2ccc(Cl)cc2)cc1', 'residual activity', 88),
  ('COc1cc2ncnc(Nc3ccc(Oc4ccccc4)cc3)c2cc1OC', 'residual activity', 100),
  ('CN(C)c1ccc(/C=C2\C(=O)Nc3ccccc32)cc1', 'residual activity', 80),
  ('O=C1c2ccccc2-[n+]2ccc3c([nH]c4ccccc43)c21', 'residual activity', 83),
  ('O=Nc1c(-c2c(O)[nH]c3ccccc23)[nH]c2ccccc12', 'residual activity', 16),
  ('Nc1ccc2ncnc(NCCc3ccc(Oc4ccccc4)cc3)c2c1', 'residual activity', 85),
  ('COc1ccc(C(=O)Nc2sc3c(c2C(N)=O)CCCC3)cc1OC', 'residual activity', 114);
